target: CDK2/CyclinE1 (Homo sapiens (Human))
protocol_notes: CDK2/CyclinE1 kinase inhibitory activity (Caliper mobility shift)
details: read-out: CDK2/Cyclin El IC50
pIC50: −log10 of the molar value.
quantity_name: pIC50

Sample answers from the record:
CNS(=O)(=O)c1ccc(Nc2ncc(C(F)(F)F)c(OC3CCOCC3O)n2)cc1 (single isomer, unassigned) [Example 116a] | > 8.00
C[C@]1(O)CCC[C@H]1Oc1nc(NC2CCN(S(C)(=O)=O)CC2)ncc1C#N (relative stereo) [Example 5b] | 7.00 to 8.00

Now consider the entry below.
Input: Item: [2H]C([2H])([2H])NS(=O)(=O)c1ccc(Nc2ncc(Br)c(OC3CCCC3O)n2)cc1 (single isomer, unassigned) [Example 143a] Test system: CDK2/CyclinE1 (Homo sapiens (Human)) Read-out: pIC50 Value: ?
Output: > 8.00

###

target: CDK7/CyclinH/MAT1 (Homo sapiens (Human))
Sequence (P50613 whole entry): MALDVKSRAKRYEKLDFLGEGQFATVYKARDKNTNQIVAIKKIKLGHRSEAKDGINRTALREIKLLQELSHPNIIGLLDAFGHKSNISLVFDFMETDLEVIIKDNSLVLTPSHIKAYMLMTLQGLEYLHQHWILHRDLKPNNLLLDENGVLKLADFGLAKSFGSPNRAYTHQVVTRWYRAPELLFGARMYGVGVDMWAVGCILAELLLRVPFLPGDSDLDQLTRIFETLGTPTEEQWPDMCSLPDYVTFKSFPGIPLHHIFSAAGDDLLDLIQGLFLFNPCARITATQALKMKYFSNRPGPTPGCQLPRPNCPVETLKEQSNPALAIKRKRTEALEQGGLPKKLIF
Sequence (P51946 whole entry partner): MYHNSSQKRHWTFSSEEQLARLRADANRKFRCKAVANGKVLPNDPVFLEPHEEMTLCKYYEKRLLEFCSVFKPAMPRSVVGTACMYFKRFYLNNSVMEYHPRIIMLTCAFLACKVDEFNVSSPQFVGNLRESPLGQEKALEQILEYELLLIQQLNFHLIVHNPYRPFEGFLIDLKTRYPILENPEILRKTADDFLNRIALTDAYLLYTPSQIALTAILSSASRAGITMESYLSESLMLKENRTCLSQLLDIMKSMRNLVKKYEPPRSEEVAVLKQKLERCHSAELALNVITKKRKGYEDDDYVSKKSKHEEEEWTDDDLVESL
Sequence (P51948 whole entry partner): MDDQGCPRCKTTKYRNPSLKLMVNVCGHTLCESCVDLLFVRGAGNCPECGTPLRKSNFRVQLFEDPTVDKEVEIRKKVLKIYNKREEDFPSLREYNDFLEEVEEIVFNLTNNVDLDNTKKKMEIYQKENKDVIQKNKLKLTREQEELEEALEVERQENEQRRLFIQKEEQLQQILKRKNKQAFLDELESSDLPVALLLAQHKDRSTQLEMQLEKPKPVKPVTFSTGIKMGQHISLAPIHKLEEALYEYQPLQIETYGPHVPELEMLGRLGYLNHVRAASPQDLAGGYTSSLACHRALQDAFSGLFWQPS
protocol_notes: CDK7/CyclinH/MAT1 kinase inhibitory activity (Caliper mobility shift)
pIC50: −log10 of the molar value.
The reader will find reported pIC50 values listed item by item below.

Some entries whose results are on file:
NS(=O)(=O)c1ccc(Nc2ncc(F)c(N3CCCCC3)n2)cc1 | ≤ 6.00
CC1(C)CCCN(c2nc(Nc3ccc(S(N)(=O)=O)cc3)ncc2C#N)C1 | ≤ 6.00
CNS(=O)(=O)c1ccc(Nc2ncc(C#N)c(OC3CCCC3(C)O)n2)cc1 (single isomer, unassigned) [Example 34a] | 7.00 to 8.00
[2H]C([2H])([2H])NS(=O)(=O)c1ccc(Nc2ncc(C(F)(F)F)c(O[C@H]3CCOC[C@H]3O)n2)c(F)c1 (single isomer, unassigned) [Example 101a] | ≤ 6.00
CC1(O)CCCC1Oc1nc(NC2CCN(S(=O)(=O)CC3CCOC3)CC2)ncc1C#N (single isomer, unassigned) [Example 40b] | ≤ 6.00

Input: Any idea what pIC50 was measured for NS(=O)(=O)c1ccc(Nc2ncc(C(F)(F)F)c(O[C@@H]3CCC[C@@H]3O)n2)cc1 (single isomer, unassigned) [Example 99a] ?
Output: 6.00 to 7.00

Input: Entry `CNc1cccc(-c2nc(Nc3ccc(S(N)(=O)=O)cc3)ncc2C#N)c1` : reported pIC50 = ?
Output: ≤ 6.00

Input: So what does the record say about pIC50 for CN1CCC(NS(=O)(=O)c2ccc(Nc3ncc(Cl)c(OC4CCCC4O)n3)cc2)CC1 (single isomer, unassigned) [Example 139b] ?
Output: ≤ 6.00

Input: So what does the record say about pIC50 for CCc1cnc(Nc2ccc(S(N)(=O)=O)cc2)nc1O[C@@H]1CCC[C@@H]1O (single isomer, unassigned) [Example 133a] ?
Output: 6.00 to 7.00

###

Each record here notes measured IC50.
target: CDK9/CyclinT1 (Homo sapiens (Human), UniProt P50750)
Sequence (P50750 whole entry): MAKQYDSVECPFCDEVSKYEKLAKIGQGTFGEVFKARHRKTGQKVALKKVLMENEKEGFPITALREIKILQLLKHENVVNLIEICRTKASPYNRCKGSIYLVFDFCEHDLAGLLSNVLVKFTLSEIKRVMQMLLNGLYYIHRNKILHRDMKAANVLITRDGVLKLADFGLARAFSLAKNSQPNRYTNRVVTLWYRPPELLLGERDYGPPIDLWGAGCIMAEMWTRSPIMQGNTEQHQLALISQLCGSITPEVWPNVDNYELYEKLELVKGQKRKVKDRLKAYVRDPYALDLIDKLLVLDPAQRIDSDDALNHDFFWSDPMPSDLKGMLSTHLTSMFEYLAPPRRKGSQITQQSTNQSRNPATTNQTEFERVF
Sequence (O60563 whole entry partner): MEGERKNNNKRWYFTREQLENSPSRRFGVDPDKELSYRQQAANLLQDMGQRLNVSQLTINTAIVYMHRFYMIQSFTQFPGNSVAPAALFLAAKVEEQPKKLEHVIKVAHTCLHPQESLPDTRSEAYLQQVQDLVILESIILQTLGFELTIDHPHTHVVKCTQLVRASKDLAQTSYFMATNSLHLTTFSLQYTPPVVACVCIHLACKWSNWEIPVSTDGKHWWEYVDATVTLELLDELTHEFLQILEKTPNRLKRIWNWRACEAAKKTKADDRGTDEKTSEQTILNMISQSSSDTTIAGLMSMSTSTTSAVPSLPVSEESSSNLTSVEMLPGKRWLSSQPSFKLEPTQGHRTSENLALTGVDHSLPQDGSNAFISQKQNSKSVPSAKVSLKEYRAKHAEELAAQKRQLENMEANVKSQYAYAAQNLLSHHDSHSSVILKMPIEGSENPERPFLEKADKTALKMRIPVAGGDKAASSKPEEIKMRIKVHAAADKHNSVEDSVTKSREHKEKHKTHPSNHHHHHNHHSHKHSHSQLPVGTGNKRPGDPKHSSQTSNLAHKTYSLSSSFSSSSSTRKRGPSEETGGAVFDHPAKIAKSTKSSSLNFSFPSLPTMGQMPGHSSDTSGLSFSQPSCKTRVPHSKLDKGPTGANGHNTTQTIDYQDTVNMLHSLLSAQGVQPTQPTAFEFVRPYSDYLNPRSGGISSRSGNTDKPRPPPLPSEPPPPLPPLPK
protocol_notes: CDK9/CyclinT1 kinase inhibitory activity (Caliper mobility shift)
details: read-out: CDK9/Cyclin T1 IC50

NS(=O)(=O)c1ccc(Nc2ncc(C(F)(F)F)c(OC3COCCC3O)n2)cc1 (single isomer, unassigned) [Example 115b] | 100 to 1000 nM
CNS(=O)(=O)c1ccc(Nc2ncc(C(F)(F)F)c(OC3CCOCC3O)n2)cc1 (single isomer, unassigned) [Example 116b] | ≥ 1000 nM
CC(C)NS(=O)(=O)c1ccc(Nc2ncc(Cl)c(OC3CCCC3O)n2)cc1 (single isomer, unassigned) [Example 138b] | 100 to 1000 nM
CN1CCC(NS(=O)(=O)c2ccc(Nc3ncc(Cl)c(OC4CCCC4O)n3)cc2)CC1 (single isomer, unassigned) [Example 139a] | 100 to 1000 nM
CCS(=O)(=O)N1CCC(Nc2ncc(C#N)c(OC3CCCC3(C)O)n2)CC1 (single isomer, unassigned) [Example 36b] | 100 to 1000 nM

Input: Form field: reported IC50 of [2H]C([2H])([2H])NS(=O)(=O)c1ccc(Nc2ncc(C(F)(F)F)c(O[C@H]3CCOC[C@H]3O)n2)c(F)c1 (single isomer, unassigned) [Example 101a]
Output: ≥ 1000 nM

Input: Requested read-out: IC50. Entry: [2H]C([2H])([2H])NS(=O)(=O)c1ccc(Nc2ncc(C#N)c(OC3CCCOCC3)n2)cc1 (single isomer, unassigned) [Example 33b]
Output: ≥ 1000 nM

Input: Item under review: `N#Cc1cnc(Nc2ccc(S(N)(=O)=O)cc2)nc1N1CCCCC1` . Reported IC50?
Output: 100 to 1000 nM

Input: IC50 for N#Cc1cnc(Nc2ccc(S(N)(=O)=O)cc2)nc1OC1CCCC(O)C1 (single isomer, unassigned) [Example 21b] ?
Output: 100 to 1000 nM

Input: Which IC50 reading was recorded for the compound O=S(=O)(NC1CCOCC1)c1ccc(Nc2ncc(Cl)c(O[C@@H]3CCC[C@@H]3O)n2)cc1 (single isomer, unassigned) [Example 130a] ?
Output: 100 to 1000 nM

Input: So what does the record say about IC50 for CC(C)NS(=O)(=O)c1ccc(Nc2ncc(C#N)c(OC3CCC[C@H]3O)n2)cc1 (mixture of isomers) ?
Output: 100 to 1000 nM

Input: Quick one: IC50 of CNS(=O)(=O)c1ccc(Nc2ncc(Cl)c(OC3CCCC3O)n2)cc1 (single isomer, unassigned) [Example 137b] ?
Output: 100 to 1000 nM

Input: Given the compound CC1(O)COCCC1Oc1nc(NC2CCN(S(C)(=O)=O)CC2)ncc1C(F)(F)F (single isomer, unassigned) [Example 124a] , what is its reported IC50?
Output: 10 to 100 nM

Input: Value lookup for IC50; key = `CC1(C)CCCN(c2nc(Nc3ccc(S(N)(=O)=O)cc3)ncc2C#N)C1`
Output: 10 to 100 nM

These measurements were taken from patent US20240166635A1.
